Test system: A-375
procedure-details: Cell cycle arrest in human A375 cells assessed as accumulation at S phase at 2 uM after 24 hrs using propidium iodide staining by flow cytometry
Format: functional
Activity by entry:
property: Activity (%)

chemical_structure=COc1cc(-c2nc3ccccc3s2)ccc1OCCCCOc1cc2c(cc1OC)C(=O)N1CCC[C@H]1C=N2 assay_target=A-375 property=Activity endpoint_value=5
chemical_structure=COc1cc(-c2nc3ccccc3s2)ccc1OCCCCCOc1cc2c(cc1OC)C(=O)N1CCC[C@H]1C=N2 assay_target=A-375 property=Activity endpoint_value=3.11
chemical_structure=COc1cc2c(cc1O)N=C[C@@H]1CCCN1C2=O assay_target=A-375 property=Activity endpoint_value=13.54
chemical_structure=COc1cc2c(cc1OCCCCC(=O)Nc1ccc(-c3nc4ccccc4s3)cc1)N=C[C@@H]1CCCN1C2=O assay_target=A-375 property=Activity endpoint_value=6.15

* * *

System: NCI-H460
procedure-details: Growth inhibition of human NCI-H460 cells after 48 hrs by sulforhodamine B assay
Assay type: functional
details: NCI-H460, 48 h
For each record, check the reported GI50: if it is below 0.3 µM write criterion met, else write criterion not met.

chemical_structure=COc1cc(-c2nc3ccccc3s2)ccc1OCCCCOc1cc2c(cc1OC)C(=O)N1CCC[C@H]1C=N2 assay_target=NCI-H460 qualitative_label="criterion not met"
chemical_structure=COc1cc(-c2nc3ccccc3s2)ccc1OCCCCCOc1cc2c(cc1OC)C(=O)N1CCC[C@H]1C=N2 assay_target=NCI-H460 qualitative_label="criterion met"
chemical_structure=COc1cc2c(cc1OCCCCCOc1ccc(-c3nc4ccccc4s3)cc1)N=C[C@@H]1CCCN1C2=O assay_target=NCI-H460 qualitative_label="criterion not met"
chemical_structure=COc1cc2c(cc1OCCCCOc1ccc(-c3nc4ccccc4s3)cc1)N=C[C@@H]1CCCN1C2=O assay_target=NCI-H460 qualitative_label="criterion not met"
chemical_structure=COc1cc2c(cc1OCCCCC(=O)Nc1ccc(-c3nc4ccccc4s3)cc1)N=C[C@@H]1CCCN1C2=O assay_target=NCI-H460 qualitative_label="criterion not met"

* * *

Test system: RXF 393
procedure-details: Growth inhibition of human RXF393 cells after 48 hrs by sulforhodamine B assay
Assay type: functional
details: RXF 393, 48 h
For each record, check the reported GI50: if it is below 200 nM write Y, else write N.

chemical_structure=COc1cc(-c2nc3ccccc3s2)ccc1OCCCCCOc1cc2c(cc1OC)C(=O)N1CCC[C@H]1C=N2 assay_target="RXF 393" qualitative_label=Y
chemical_structure=COc1cc(-c2nc3ccccc3s2)ccc1OCCCCOc1cc2c(cc1OC)C(=O)N1CCC[C@H]1C=N2 assay_target="RXF 393" qualitative_label=N
chemical_structure=COc1cc2c(cc1OCCCCC(=O)Nc1ccc(-c3nc4ccccc4s3)cc1)N=C[C@@H]1CCCN1C2=O assay_target="RXF 393" qualitative_label=N
chemical_structure=COc1cc2c(cc1OCCCCOc1ccc(-c3nc4ccccc4s3)cc1)N=C[C@@H]1CCCN1C2=O assay_target="RXF 393" qualitative_label=Y

* * *

GI50 by entry:
Test system: NCI-H23
procedure-details: Growth inhibition of human NCI-H23 cells after 48 hrs by sulforhodamine B assay
Format: functional
details: NCI-H23, 48 h
property: GI50

chemical_structure=COc1cc(-c2nc3ccccc3s2)ccc1OCCCCCOc1cc2c(cc1OC)C(=O)N1CCC[C@H]1C=N2 property=GI50 endpoint_value="61.7 nM"
chemical_structure=COc1cc(-c2nc3ccccc3s2)ccc1OCCCCOc1cc2c(cc1OC)C(=O)N1CCC[C@H]1C=N2 property=GI50 endpoint_value="1480 nM"
chemical_structure=COc1cc2c(cc1OCCCCCOc1ccc(-c3nc4ccccc4s3)cc1)N=C[C@@H]1CCCN1C2=O property=GI50 endpoint_value="891 nM"
chemical_structure=COc1cc2c(cc1OCCCCOc1ccc(-c3nc4ccccc4s3)cc1)N=C[C@@H]1CCCN1C2=O property=GI50 endpoint_value="741 nM"

The origin of these recorded values is ChEMBL document CHEMBL1177643.
